Settings: in ethanol, 318.15 K

- structure-as-smiles: "CCOc1ccccc1C(N)=O"
  solubility (mole fraction): 0.0392

###

Details: in acetonitrile, 298.15 K
endpoint: solubility (mole fraction)

- structure-as-smiles: "CCOc1ccccc1C(N)=O"
  reading: 0.0091

###

Conditions: in acetonitrile, 308.15 K

- structure-as-smiles: "CCOc1ccccc1C(N)=O"
  solubility (mole fraction): 0.0167

###

Settings: in methanol, 308.15 K

- structure-as-smiles: "CCOc1ccccc1C(N)=O"
  solubility (mole fraction): 0.0306

###

Settings: in isopropanol, 318.15 K

- structure-as-smiles: "CCOc1ccccc1C(N)=O"
  solubility (mole fraction): 0.0304
